Attribution: ChEMBL document CHEMBL3988442

assay: Trypanosoma cruzi proteasome luciferase counter-screen; format: functional, N/A
ENDPOINT LABEL: pIC50

1. Cc1ccc(NCc2cncc3c2CCN(C(=O)C2CC=CC2)C3)nn1.Cl    < 4
2. Cc1cnn(CC2CCCN2CC(=O)N(C)Cc2ccc(C)o2)c1 (stereo not drawn)    < 4
3. Cc1nc(CN2CCOC(CNc3cccnn3)C2)oc1C (stereo not drawn)    < 4

---

Reported pIC50 values for a set of molecules
system: Wolbachia pipientis; assay: Anti-Wolbachia Cell-Based Screen; assay type: functional
ENDPOINT LABEL: pIC50

1. CCC(CC)C(=O)N1CCCc2c(cnn2C)C1    5.338
2. COc1ccc(C[C@H]2CN(c3nnc(C)s3)CC[C@@H]2OC)cc1.O=C(O)C(F)(F)F    5.531
3. CC(C)N1c2sc(-c3ccsc3)nc2CC1C(=O)NC1CCCC1 (stereo unspecified)    5.095
4. CCC(Nc1nc(C)nc2onc(C)c12)c1nc(C)c(C)s1 (stereo unspecified)    5.592
5. c1ccc(-c2nnc(N3CCCC4(CCOC4)C3)s2)cc1 (stereo unspecified)    5.105
6. CC(C)[C@@H]1CN(C2CCN(Cc3ccccc3)CC2)C[C@H]1NS(C)(=O)=O    5.381
7. CCOc1ccc2nc(NC(=O)c3c(C(=O)O)cnn3C)sc2c1    5.956
8. Cc1cnc(Nc2cccc(C3CCCN3Cc3cn(C)nc3C)n2)s1 (stereo unspecified)    5.174
9. CSc1ccc(NCc2csc(C)n2)cc1F    5.126
10. Cc1nn(C)c2nc(N3CCCCC3c3ccc(F)cc3)sc12 (stereo unspecified)    5.674
11. c1ccc(O[C@H]2COCCN(Cc3c[nH]c4ccccc34)C2)cc1    5.37
